biological target: human PPARδ (Homo sapiens, UniProt Q03181); construct: with 137th to 441st amino acids of human PPARδ; expressed in transfected cells; host or cells: COS cells (African green monkey kidney); test: Gal4-human PPARδ chimera luciferase transfection assay in COS cells; type: cell-based; details: compound added at 1 μM, luciferase activity with GW501516 1 μM given as 10.0, 16 hours
Sequence (Q03181 137-441): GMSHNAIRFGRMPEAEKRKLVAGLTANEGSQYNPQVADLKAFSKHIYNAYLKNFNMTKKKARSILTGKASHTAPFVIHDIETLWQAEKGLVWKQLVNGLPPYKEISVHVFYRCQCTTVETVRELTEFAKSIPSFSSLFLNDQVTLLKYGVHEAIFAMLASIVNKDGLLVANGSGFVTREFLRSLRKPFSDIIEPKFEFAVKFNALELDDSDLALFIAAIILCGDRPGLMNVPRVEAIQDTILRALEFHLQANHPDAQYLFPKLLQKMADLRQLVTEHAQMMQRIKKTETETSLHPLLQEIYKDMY
reported_endpoint: hPPAR; Relative activity δ

[[record]]
smiles_str = "O=C(O)c1cccc(OCCCCN(CCOc2ccc(Cl)cc2)c2nc3ccccc3o2)c1"
test_result = 0.6

[[record]]
smiles_str = "O=C(O)c1ccccc1SCCCCCN(Cc1ccc(Cl)cc1)c1nc2ccccc2o1"
test_result = 0.7

[[record]]
smiles_str = "O=C(O)c1ccccc1SCCN(CCCOc1ccccc1)c1nc2ccccc2o1"
test_result = 0.2


[A] CCCCCCCCN(CCCOc1ccccc1C(=O)O)c1nc2ccccc2o1
[B] O=C(O)c1cccc(OCCCCN(CCCOc2ccccc2)c2nc3ccccc3o2)c1
Lab note: check whether A or B has the lower measured hPPAR; Relative activity δ. Respond with the label that goes with your answer.
A
(A: 0.1, B: 0.2)

[I] CCCCCCN(CCCCOc1ccc(C(=O)O)cc1)c1nc2ccccc2o1
[II] CCCN(CCCCSc1ccccc1C(=O)O)c1nc2ccccc2s1
Would you let me know which has the greater hPPAR; Relative activity δ value, I or II ? Respond with the label that goes with your answer.
II
(II: 0.2, I: 0.1)

[1] O=C(O)c1ccccc1SCCN(CCCc1ccccc1)c1nc2ccccc2o1
[2] CCCCCCCCN(CCCCOc1ccccc1C(=O)O)c1nc2ccccc2o1
Lab note: check whether 1 or 2 has the lower measured hPPAR; Relative activity δ. Respond with the label that goes with your answer.
2
(2: 0.1, 1: 0.2)
